- System: Mus musculus
- procedure_summary: Toxicity in albino mouse assessed as body-temperature variation at 5 mg/kg, ip measured 20 mins after dl-amphetamine sulfate injection dosed 30 mins before dl-amphetamine sulfate injection
- Type: organism-based
- Parameters: dose 5 mg/kg, route intraperitoneal
- details: in vivo
I'd appreciate it if you could supply temperature change values for the items below.
Give your result in °C as a bare value.

Inquiry: What value of temperature change on Mus musculus does C[N+](C)(C)CCN1CCN(c2ccccc2)c2ccccc2C1=O.[I-] have?
Reply text: -0.3

Inquiry: What value of temperature change on Mus musculus does C[N+](C)(C)CCCN1CCN(c2ccccc2)c2ccccc2C1=O.[I-] have?
Reply text: 1.2

Inquiry: What value of temperature change on Mus musculus does CC(C[N+](C)(C)C)N1CCN(c2ccccc2)c2ccccc2C1=O.[I-] (stereo unspecified) have?
Reply text: 0.3

Inquiry: What value of temperature change on Mus musculus does C[N+]1(CCN2CCN(c3ccccc3)c3ccccc3C2=O)CCCC1.[I-] have?
Reply text: 1.6

Inquiry: What value of temperature change on Mus musculus does CC[N+](C)(CC)CCN1CCN(c2ccccc2)c2ccccc2C1=O.[I-] have?
Reply text: 1.4

Inquiry: What value of temperature change on Mus musculus does C[N+]1(CCN2CCN(c3ccccc3)c3ccccc3C2=O)CCCCC1.[I-] have?
Reply text: 0.9
